TARGET OR SYSTEM: HeLa cell extract proteins (Homo sapiens)
Construct: endogenous in cells; host or cells: HeLa cell extract
Type: binding
TEST CONDITIONS: protein MCM7; HeLa
Label 0 if fold changes relative to vehicle control falls below 1; label 1 in every other case.

{"columns": ["COMPOUND", "TARGET OR SYSTEM", "CLASS"],
 "data": [
  ["NCCOCCOCC(=O)Nc1nc2ncc(CNc3ccc(C(=O)NC(CCC(=O)O)C(=O)O)cc3)nc2c(=O)[nH]1 (stereo not drawn)", "HeLa cell extract proteins (Homo sapiens)", 1],
  ["CCCCCCOc1cccc(Cc2cnc(N)nc2N)c1", "HeLa cell extract proteins (Homo sapiens)", 1],
  ["Nc1nc2cccc(-c3ccccc3)c2n1Cc1ccc(Cl)c(Cl)c1", "HeLa cell extract proteins (Homo sapiens)", 1]
]}

Query: Entry Nc1nc2c(c(=O)[nH]1)N(C=O)C(CNc1ccc(C(=O)N[C@@H](CCC(=O)O)C(=O)O)cc1)CN2 (stereo partly drawn) : is its fold changes relative to vehicle control no less than 1?
Result: 0

Query: Entry NCCCNc1ccc(C(=O)NC(CCC(=O)O)C(=O)O)cc1 (stereo not drawn) : is its fold changes relative to vehicle control no less than 1?
Result: 1

Query: Entry `CCCCCCOc1ccc(Cc2cnc(N)nc2N)cc1` : is its fold changes relative to vehicle control no less than 1?
Result: 1

====

Listed here are compounds together with their documented fold changes relative to vehicle control.
TARGET OR SYSTEM: HeLa cell extract proteins (Homo sapiens, UniProt P16070)
Construct: endogenous in cells; host or cells: HeLa cell extract
Sequence (P16070 21-742): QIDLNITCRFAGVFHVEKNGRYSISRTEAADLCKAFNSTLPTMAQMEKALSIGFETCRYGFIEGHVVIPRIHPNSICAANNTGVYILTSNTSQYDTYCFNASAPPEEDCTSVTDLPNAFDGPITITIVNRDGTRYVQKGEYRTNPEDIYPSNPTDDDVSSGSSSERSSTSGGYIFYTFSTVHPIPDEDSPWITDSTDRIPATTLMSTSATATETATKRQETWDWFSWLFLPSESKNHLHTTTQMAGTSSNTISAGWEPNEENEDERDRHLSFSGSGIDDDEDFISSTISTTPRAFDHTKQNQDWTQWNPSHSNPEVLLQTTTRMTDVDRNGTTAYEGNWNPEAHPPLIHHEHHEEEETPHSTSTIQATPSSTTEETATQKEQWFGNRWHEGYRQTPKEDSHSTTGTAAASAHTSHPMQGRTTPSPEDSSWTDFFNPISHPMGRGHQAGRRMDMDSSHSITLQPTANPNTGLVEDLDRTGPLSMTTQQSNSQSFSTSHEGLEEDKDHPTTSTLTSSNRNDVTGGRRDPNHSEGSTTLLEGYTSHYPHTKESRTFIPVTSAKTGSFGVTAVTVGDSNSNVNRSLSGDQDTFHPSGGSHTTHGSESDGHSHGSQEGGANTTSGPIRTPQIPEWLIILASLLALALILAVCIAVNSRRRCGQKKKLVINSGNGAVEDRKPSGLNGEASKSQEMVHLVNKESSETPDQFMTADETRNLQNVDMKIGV
Assay type: binding
TEST CONDITIONS: protein CD44; HeLa
Answer with a bare number; do not write a unit.

# count of solved cases: 5
{"columns": ["COMPOUND", "RECORDED METRIC", "VALUE OBSERVED"],
 "data": [
  ["NCCOCCOCC(=O)Nc1nc2ncc(CNc3ccc(C(=O)NC(CCC(=O)O)C(=O)O)cc3)nc2c(=O)[nH]1 (stereo not drawn)", "fold changes relative to vehicle control", 1.3],
  ["Nc1nc2cccc(-c3ccccc3)c2n1Cc1ccc(Cl)c(Cl)c1", "fold changes relative to vehicle control", 1.49],
  ["Nc1nc2c(c(=O)[nH]1)N(C=O)C(CNc1ccc(C(=O)N[C@@H](CCC(=O)O)C(=O)O)cc1)CN2 (stereo partly drawn)", "fold changes relative to vehicle control", 1.08],
  ["CCCCCCOc1cccc(Cc2cnc(N)nc2N)c1", "fold changes relative to vehicle control", 1.42],
  ["CCCCCCOc1ccc(Cc2cnc(N)nc2N)cc1", "fold changes relative to vehicle control", 1.08]
]}

Proceeding to the next compound to report its fold changes relative to vehicle control.
Documented fold changes relative to vehicle control of NCCCNc1ccc(C(=O)NC(CCC(=O)O)C(=O)O)cc1 (stereo not drawn) : 1.06

====

TARGET OR SYSTEM: HeLa cell extract proteins (Homo sapiens, UniProt Q9BXR0)
Construct: endogenous in cells; host or cells: HeLa cell extract
Sequence (Q9BXR0 whole entry): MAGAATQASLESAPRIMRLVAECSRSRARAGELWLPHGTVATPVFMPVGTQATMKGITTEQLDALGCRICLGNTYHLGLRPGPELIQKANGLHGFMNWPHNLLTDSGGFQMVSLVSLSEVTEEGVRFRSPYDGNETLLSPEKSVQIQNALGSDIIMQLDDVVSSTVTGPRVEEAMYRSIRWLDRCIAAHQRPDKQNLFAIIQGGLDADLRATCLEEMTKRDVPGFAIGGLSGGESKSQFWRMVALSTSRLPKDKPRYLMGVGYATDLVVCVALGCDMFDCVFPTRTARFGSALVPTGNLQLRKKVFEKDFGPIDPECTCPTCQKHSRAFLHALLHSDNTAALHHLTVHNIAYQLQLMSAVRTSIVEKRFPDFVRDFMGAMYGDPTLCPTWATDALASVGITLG
Assay type: binding
TEST CONDITIONS: protein QTRT1; HeLa
# fulfilled = fold changes relative to vehicle control below 1 (exclusive); not fulfilled = fold changes relative to vehicle control at/above 1

Consider the following illustrative entries.
{"columns": ["COMPOUND", "CLASS"],
 "data": [
  ["Nc1nc2c(c(=O)[nH]1)N(C=O)C(CNc1ccc(C(=O)N[C@@H](CCC(=O)O)C(=O)O)cc1)CN2 (stereo partly drawn)", "fulfilled"],
  ["CCCCCCOc1cccc(Cc2cnc(N)nc2N)c1", "not fulfilled"],
  ["CCCCCCOc1ccc(Cc2cnc(N)nc2N)cc1", "fulfilled"],
  ["Nc1nc2cccc(-c3ccccc3)c2n1Cc1ccc(Cl)c(Cl)c1", "not fulfilled"]
]}

Switching to the query record.
Query: Criterion: fold changes relative to vehicle control strictly below 1. Is it met by NCCOCCOCC(=O)Nc1nc2ncc(CNc3ccc(C(=O)NC(CCC(=O)O)C(=O)O)cc3)nc2c(=O)[nH]1 (stereo not drawn) ?
Result: fulfilled

====

Tested on: methylthioadenosine phosphorylase (LmjF.05.0830)
ASSAY DETAILS: Multitargeted bead mixture competition
Assay type: binding, Leishmania
TEST CONDITIONS: protein LMJF.05.0830 METHYLTHIOADENOSINE PHOSPHORYLASE, PUTATIVE
Listed here are molecules together with their documented fold change vs vehicle control.
Answer with a bare number; do not write a unit.

{"columns": ["MOLECULE", "fold change vs vehicle control"],
 "data": [
  ["CCCCCCOc1cccc(Cc2cnc(N)nc2N)c1", 0.89],
  ["Nc1nc2c(c(=O)[nH]1)N(C=O)C(CNc1ccc(C(=O)N[C@@H](CCC(=O)O)C(=O)O)cc1)CN2 (stereo partly shown)", 0.96],
  ["Nc1nc2[nH]cc(CCc3ccc(C(=O)N[C@@H](CCC(=O)O)C(=O)O)cc3)c2c(=O)[nH]1", 0.91]
]}

Proceeding to the next molecule to report its fold change vs vehicle control.
Documented fold change vs vehicle control of NCCCNc1ccc(C(=O)NC(CCC(=O)O)C(=O)O)cc1 (stereo not shown) : 1.02

====

Tested on: TB927.7.1340
ASSAY DETAILS: Multitargeted bead mixture competition
Assay type: binding
TEST CONDITIONS: free ligand 100 μM, T. brucei lysate
RECORDED METRIC: percentage of competition from bead binding (%)
Quick reminder: number only, in %, skip the unit.

{"columns": ["COMPOUND", "VALUE OBSERVED"],
 "data": [
  ["Nc1nc(O)c2c(CCc3ccccc3)c[nH]c2n1", -41],
  ["Nc1nc2cccc(-c3ccccc3)c2n1Cc1ccc(Cl)c(Cl)c1", 40],
  ["CN(Cc1cnc2nc(N)nc(N)c2n1)c1ccc(C(=O)N[C@@H](CCC(=O)O)C(=O)O)cc1 [MTX, methotrexate]", 51]
]}

Proceeding to the next compound to report its percentage of competition from bead binding.
Per the reported TB927.7.1340 data, `Cc1ccc2nc(N)[nH]c(=O)c2c1Sc1ccncc1` has percentage of competition from bead binding of 11

====

TARGET OR SYSTEM: HeLa cell extract proteins (Homo sapiens, UniProt P24752)
Construct: endogenous in cells; host or cells: HeLa cell extract
Sequence (P24752 34-427): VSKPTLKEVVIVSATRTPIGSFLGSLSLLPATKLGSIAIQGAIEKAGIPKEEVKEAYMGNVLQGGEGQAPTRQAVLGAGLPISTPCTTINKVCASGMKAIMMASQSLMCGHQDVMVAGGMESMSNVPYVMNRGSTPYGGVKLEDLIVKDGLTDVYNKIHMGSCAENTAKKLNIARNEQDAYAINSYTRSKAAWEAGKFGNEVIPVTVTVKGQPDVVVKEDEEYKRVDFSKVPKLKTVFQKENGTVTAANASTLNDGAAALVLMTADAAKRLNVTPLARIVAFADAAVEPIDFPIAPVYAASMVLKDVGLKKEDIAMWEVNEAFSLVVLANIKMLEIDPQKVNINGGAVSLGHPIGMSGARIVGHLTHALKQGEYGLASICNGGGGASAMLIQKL
Assay type: binding
TEST CONDITIONS: protein ACAT1; HeLa
RECORDED METRIC: fold changes relative to vehicle control

{"columns": ["COMPOUND", "TARGET OR SYSTEM", "fold changes relative to vehicle control"],
 "data": [
  ["NCCCNc1ccc(C(=O)NC(CCC(=O)O)C(=O)O)cc1 (stereo not drawn)", "HeLa cell extract proteins (Homo sapiens, UniProt P24752)", 0.87],
  ["NCCOCCOCC(=O)Nc1nc2ncc(CNc3ccc(C(=O)NC(CCC(=O)O)C(=O)O)cc3)nc2c(=O)[nH]1 (stereo not drawn)", "HeLa cell extract proteins (Homo sapiens, UniProt P24752)", 1.31],
  ["CCCCCCOc1ccc(Cc2cnc(N)nc2N)cc1", "HeLa cell extract proteins (Homo sapiens, UniProt P24752)", 1.22],
  ["Nc1nc2cccc(-c3ccccc3)c2n1Cc1ccc(Cl)c(Cl)c1", "HeLa cell extract proteins (Homo sapiens, UniProt P24752)", 0.84],
  ["Nc1nc2c(c(=O)[nH]1)N(C=O)C(CNc1ccc(C(=O)N[C@@H](CCC(=O)O)C(=O)O)cc1)CN2 (stereo partly drawn)", "HeLa cell extract proteins (Homo sapiens, UniProt P24752)", 1]
]}

Documented fold changes relative to vehicle control of `CCCCCCOc1cccc(Cc2cnc(N)nc2N)c1` : 1.75

====

Test system: L. major lysate proteins
ASSAY DETAILS: Multitargeted bead mixture chemoproteomics, single concentration competition, proteome-wide
Assay type: binding
TEST CONDITIONS: protein LMJF.27.1060 CYSTEINE DESULFURASE, PUTATIVE
Listed here are compounds together with their documented fold change vs vehicle control.
Answer with a bare number; do not write a unit.

# count of solved cases: 3
{"columns": ["COMPOUND", "VALUE OBSERVED"],
 "data": [
  ["CCCCCCOc1ccc(Cc2cnc(N)nc2N)cc1", 0.97],
  ["Nc1nc2cccc(-c3ccccc3)c2n1Cc1ccc(Cl)c(Cl)c1", 1.05],
  ["NCCOCCOCC(=O)Nc1nc2ncc(CNc3ccc(C(=O)NC(CCC(=O)O)C(=O)O)cc3)nc2c(=O)[nH]1 (stereo not shown)", 1.09]
]}

Documented fold change vs vehicle control of Nc1nc2c(c(=O)[nH]1)N(C=O)C(CNc1ccc(C(=O)N[C@@H](CCC(=O)O)C(=O)O)cc1)CN2 (stereo partly shown) : 1.03

====

Test system: PROTEIN KINASE, PUTATIVE (Tb427.03.1570)
ASSAY DETAILS: Multitargeted bead mixture competition
Type: binding
TEST CONDITIONS: free ligand 100 μM, T. brucei lysate
Listed here are molecules together with their documented percentage of competition from bead binding.
Quick reminder: number only, in %, skip the unit.

# count of solved cases: 3
{"columns": ["MOLECULE", "UNITS LABEL", "VALUE OBSERVED"],
 "data": [
  ["CN(Cc1cnc2nc(N)nc(N)c2n1)c1ccc(C(=O)N[C@@H](CCC(=O)O)C(=O)O)cc1 [MTX, methotrexate]", "%", 9],
  ["Nc1nc2cccc(-c3ccccc3)c2n1Cc1ccc(Cl)c(Cl)c1", "%", -2],
  ["Cc1ccc2nc(N)[nH]c(=O)c2c1Sc1ccncc1", "%", 11]
]}

Proceeding to the next molecule to report its percentage of competition from bead binding.
Documented percentage of competition from bead binding of `Nc1nc(O)c2c(CCc3ccccc3)c[nH]c2n1` : 60
